# Assay Overview: qHTS assay for small molecules that induce genotoxicity in human embryonic kidney cells expressing luciferase-tagged ATAD5 - cell viability (AID 651634); further: nearly all actives have a fitted effect of over 25% in size
# Test Settings: HEK293T ATAD5-luc cells viability, CellTiter-Fluor, 15.5 h; series mostly up to 83.3 µM
# Text: National Center for Advancing Translational Sciences [NCATS] NIH Chemical Genomics Center [NCGC] U.S. Environmental Protection Agency [EPA] National Institutes of Environmental Health Sciences [NIEHS] National Toxicology Program [NTP] U.S. Food and Drug Administration [FDA] Enhanced Level of Genome Instability Gene 1 (ELG1; human ATAD5) protein levels increase in response to various types of DNA damage. […]
Inconclusive results are not listed. Active and inactive are the calls of the source. The call rests on the fitted dose curve.
Possible outcomes: True (active), False (inactive)

> print(dat)
                                    compound  category
 1                        C=CC(C)(C)CC(=O)OC     False
 2  CC(C)(O)c1ccccc1CC[C@@H](SCC1(CC(=O)O)CC1)c1cccc(/C=C/c2ccc3ccc(Cl)cc3n2)c1     False
 3   CN(C(=O)C(Cl)Cl)c1ccc(OC(=O)c2ccco2)cc1     False
 4  O=[N+]([O-])c1cccc(S(=O)(=O)NCCNS(=O)(=O)c2cccc([N+](=O)[O-])c2)c1     False
 5                        CCOC(=O)c1ccccc1OC     False
 6                         CCOC(=N)CC(=O)OCC     False
 7                   O=C(Nc1ccccc1)Nc1ccccc1     False
 8                O=C(CCCCCCCCC#CI)Oc1ccccc1     False
 9                            Cc1nc2ccccc2s1     False
10                CC(N)CN (stereo not given)     False
11                    CCCCC/C(=C\c1ccccc1)CO     False
12  CCCC1C(CC)=CC(CC)=CN1c1ccccc1 (stereo not given)     False
13  O=C(O)C(Cc1cc(I)c(O)c(I)c1)c1ccccc1 (stereo not given)     False
14  CCCCC(CC)COC(=O)COc1ccc(Cl)cc1C (stereo not given)     False
15  Cc1ccc(Nc2nccc(N(C)c3ccc4c(C)n(C)nc4c3)n2)cc1S(N)(=O)=O      True
16           CC1=NN(c2ccc(C(=O)O)cc2)C(=O)C1     False
17                         O=C(O)c1ccc(CO)o1     False
18  Cc1cc(C(=C2C=CC(=Nc3ccc(S(=O)(=O)O)cc3S(=O)(=O)O)C=C2)c2ccc(Nc3ccc(S(=O)(=O)O)cc3)cc2)ccc1N     False
19  CCCC(=O)O[C@]1(C(=O)COC(=O)CC)CC[C@H]2[C@@H]3CCC4=CC(=O)CC[C@]4(C)[C@H]3[C@@H](O)C[C@@]21C     False
20  CC(=O)Oc1ccc2c(c1)CC[C@@H]1[C@@H]2CC[C@]2(C)[C@@H](O)CC[C@@H]12     False
21  O=C(CCC1CCN(Cc2ccccc2)CC1)c1ccc2c(c1)NCCCC2     False
22     Brc1cc(-c2ccc(Br)c(Br)c2Br)cc(Br)c1Br     False
23          CCCCCCCCCCCC[N+](C)(C)CC(=O)[O-]     False
24            OCC1CC=CCC1 (stereo not given)     False
25         CCCCCCCC/C=C\CCCCCCCC(=O)OC(CO)CO     False

----------
# Assay Overview: A CellTox Green Cytotoxicity Assay to monitor cytotoxicity in HepG2 cells - 40 hour (AID 1224879); further: nearly all actives have a fitted effect of over 40% in size
# Test Settings: CellTox Green fluorescence; series mostly up to 76.8 µM
Records with an inconclusive call do not appear. Activity calls are given as the source filed them. Calls follow the shape of the dose curve; as a rule, active = well fitted activation curve with a large enough effect in the repeat runs; inconclusive = weak or mixed curves; inactive = flat fitted curve, though single readings scatter.
Possible outcomes: 1 (yes) for active, 0 (no) for inactive

> print(dat)
                                    compound  category
 1                  Nc1ccc(S(=O)(=O)O)c(N)c1    0 (no)
 2                           Cc1cnc(C)c(C)n1    0 (no)
 3  CC(=O)N(c1onc(C)c1C)S(=O)(=O)c1ccc(N)cc1    0 (no)
 4                      O=C(O)c1cccnc1C(=O)O    0 (no)
 5                        C=CC(C)(C)CC(=O)OC    0 (no)
 6                          c1cnc2c(n1)CCCC2   1 (yes)
 7              C/C(=N/NC(=O)c1ccncc1)C(=O)O    0 (no)
 8      CC(C)CCCCCOC(=O)CCCCC(=O)OCCCCCC(C)C    0 (no)
 9  O=C(O)C(Cc1cc(I)c(O)c(I)c1)c1ccccc1 (stereo not given)    0 (no)
10  CC(C)(O)c1ccccc1CC[C@@H](SCC1(CC(=O)O)CC1)c1cccc(/C=C/c2ccc3ccc(Cl)cc3n2)c1    0 (no)
11                            Cc1nc2ccccc2s1    0 (no)
12                              OCCSc1ccccc1    0 (no)
13  COc1cc2ncnc(Nc3ccc(F)c(Cl)c3)c2cc1OCCCN1CCOCC1   1 (yes)
14                 O=C(O)c1ccccc1NCCc1ccccc1    0 (no)
15                         CCOC(=O)c1ccccc1C    0 (no)
16                     CC1=C(C=O)C(C)(C)CCC1    0 (no)
17                     c1ccc(COCc2ccccc2)cc1    0 (no)
18  CCC(Cc1ccccc1)(C(=O)c1ccc(N2CCOCC2)cc1)N(C)C (stereo not given)    0 (no)
19         CCCCCCCC/C=C\CCCCCCCC(=O)OC(CO)CO    0 (no)
20  CCOc1cc(N)c(Cl)cc1C(=O)NCC1CN(Cc2ccc(F)cc2)CCO1 (stereo not given)    0 (no)
21     COC(=O)c1cc(Cl)ccc1NS(=O)(=O)C(F)(F)F    0 (no)
22  C[C@@H]1C[C@H]2[C@@H]3CCC4=CC(=O)C=C[C@]4(C)[C@@]3(F)[C@@H](O)C[C@]2(C)[C@H]1C(=O)CO    0 (no)
23        CCCCCCCCCCCCCCC[C@H](O)[C@@H](N)CO   1 (yes)
24  COc1ccc(CCC(=O)c2c(O)cc(O[C@@H]3O[C@H](CO)[C@@H](O)[C@H](O)[C@H]3O[C@@H]3O[C@@H](C)[C@H](O)[C@@H](O)[C@H]3O)cc2O)cc1O    0 (no)
25  Cc1cc(S(=O)(=O)O)ccc1N=Nc1c(O)ccc2ccccc12    0 (no)

----------
# Assay Overview: qHTS assay to test for compound auto fluorescence at 590 nm (red) in HepG2 cells (AID 720674); further: on the % scale 0 is the no-effect control and ±100 the full control effect
# Test Settings: HepG2 autofluorescence, red 540/590 nm, 1 h; series mostly up to 91.3 µM
Calls of active or inactive are those of the source. Calls come from the whole dose curve; as a rule, active = well fitted curve in the direction sought with a large enough effect in the repeat runs; inconclusive = weak or mixed curves; inactive = flat fitted curve, though single readings scatter.
Measured Parameter: fluorescence, relative to Rose Bengal

> print(dat)
                                    compound                          reading
 1     CC1CC(O)CC(C)(C)C1 (stereo not drawn)                         inactive
 2                            Cc1nc2ccccc2s1                         inactive
 3        CN(C)C(=O)Nc1ccc(Oc2ccc(Cl)cc2)cc1                         inactive
 4  Fc1ccccc1[C@@H](F)COC1CCC(Nc2ncnc3[nH]ncc23)CC1 (stereo partly drawn)                         inactive
 5         OC(CCCN1CCCCC1)(c1ccccc1)c1ccccc1                         inactive
 6  CC(=O)[C@H]1CC[C@H]2[C@@H]3C=CC4=CC(=O)CC[C@@]4(C)[C@@H]3CC[C@]12C  -0.279% [at 18.6 µM] (inactive)
 7                 C=CCOC(=O)/C=C\C(=O)OCC=C                         inactive
 8  CC(C)C(OC(=O)c1ccccc1)C(C)(C)COC(=O)c1ccccc1 (stereo not drawn)                         inactive
 9                         CCOC(=O)c1ccccc1C                         inactive
10  C/C=C(\C)C(=O)OCCC(C)CCC=C(C)C (stereo not drawn)                         inactive
11                                 CNC(=S)NC                         inactive
12               C=C(C)C(=O)OCCOC(=O)CC(C)=O                         inactive
13          CCN(CC)CCNC(=O)c1ccc(NC(C)=O)cc1                         inactive
